measurementTarget: human PDE-6C (Homo sapiens, UniProt P51160)
Sequence (P51160 whole entry): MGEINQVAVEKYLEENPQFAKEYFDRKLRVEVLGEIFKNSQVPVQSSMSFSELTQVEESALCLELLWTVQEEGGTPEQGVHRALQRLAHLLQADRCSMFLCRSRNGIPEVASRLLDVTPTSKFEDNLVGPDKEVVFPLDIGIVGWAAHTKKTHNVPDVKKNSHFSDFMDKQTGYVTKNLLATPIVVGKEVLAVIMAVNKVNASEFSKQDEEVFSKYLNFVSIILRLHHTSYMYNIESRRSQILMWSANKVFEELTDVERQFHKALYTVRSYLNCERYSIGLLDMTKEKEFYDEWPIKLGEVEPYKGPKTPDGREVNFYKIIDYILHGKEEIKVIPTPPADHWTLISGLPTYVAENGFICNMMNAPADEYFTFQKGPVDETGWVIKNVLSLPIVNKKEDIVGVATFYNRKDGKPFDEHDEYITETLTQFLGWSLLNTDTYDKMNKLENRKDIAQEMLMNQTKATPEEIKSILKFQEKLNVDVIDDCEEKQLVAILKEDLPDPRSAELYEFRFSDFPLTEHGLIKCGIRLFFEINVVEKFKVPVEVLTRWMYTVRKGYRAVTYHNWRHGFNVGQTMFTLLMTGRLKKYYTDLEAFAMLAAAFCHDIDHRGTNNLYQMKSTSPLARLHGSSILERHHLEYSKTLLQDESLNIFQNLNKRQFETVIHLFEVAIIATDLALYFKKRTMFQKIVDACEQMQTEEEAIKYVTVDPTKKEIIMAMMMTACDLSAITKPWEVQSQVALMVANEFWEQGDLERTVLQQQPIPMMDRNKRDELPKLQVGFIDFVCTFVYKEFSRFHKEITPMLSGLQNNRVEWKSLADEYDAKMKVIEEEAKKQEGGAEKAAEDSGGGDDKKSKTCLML
protocol: Human PDE-6C inhibition assay (fluorescence polarization, FAM-cGMP)
Type: biochemical
statedConditions: read-out: IC50 (μM) PDE6C

compound | IC50
CCCc1nn(C)c2c(=O)[nH]c(-c3cc(S(=O)(=O)N4CC(N5CC(CO[N+](=O)[O-])C5)C4)ccc3OCC)nc12 [Compound 40] | < 0.01 µM
CCCc1nn(C)c2c(=O)[nH]c(-c3cc(S(=O)(=O)N4CC(CO)C4)ccc3OCC)nc12 [Compound 2] | 0.01 to 0.1 µM
CCCc1nn(C)c2c(=O)[nH]c(-c3cc(S(=O)(=O)N4CC(N5CC(CCO)C5)C4)ccc3OCC)nc12 [Compound 33] | < 0.01 µM
CCCc1nn(C)c2c(=O)[nH]c(-c3cc(S(=O)(=O)N4CC(CN5CC(CO)C5)C4)ccc3OCC)nc12 [Compound 28] | 0.01 to 0.1 µM
CCCc1nn(C)c2c(=O)[nH]c(-c3cc(S(=O)(=O)N4CC(OCCCCO)C4)ccc3OCC)nc12 [Compound 27] | < 0.01 µM
CCCc1nn(C)c2c(=O)[nH]c(-c3cc(S(=O)(=O)N4CC(N5CC(CO)C5)C4)ccc3OCC)nc12 [Compound 32] | 0.01 to 0.1 µM
CCCc1nn(C)c2c(=O)[nH]c(-c3cc(S(=O)(=O)N4CC(OCCCO[N+](=O)[O-])C4)ccc3OCC)nc12 [Compound 35] | < 0.01 µM
CCCc1nn(C)c2c(=O)[nH]c(-c3cc(S(=O)(=O)N4CC(CCCO)C4)ccc3OCC)nc12 [Compound 4] | < 0.01 µM
CCCc1nn(C)c2c(=O)[nH]c(-c3cc(S(=O)(=O)N4CC(N(C)CCCCO)C4)ccc3OCC)nc12 [Compound 14] | < 0.01 µM
CCCc1nn(C)c2c(=O)[nH]c(-c3cc(S(=O)(=O)N4CC(OCCO)C4)ccc3OCC)nc12 [Compound 25] | 0.01 to 0.1 µM
CCCc1nn(C)c2c(=O)[nH]c(-c3cc(S(=O)(=O)N4CC(O[N+](=O)[O-])C4)ccc3OCC)nc12 [Compound 15] | 0.01 to 0.1 µM
CCCc1nn(C)c2c(=O)[nH]c(-c3cc(S(=O)(=O)N4CC(N(CCCO)CCCO)C4)ccc3OCC)nc12 [Compound 30] | < 0.01 µM
CCCc1nn(C)c2c(=O)[nH]c(-c3cc(S(=O)(=O)NC4CN(CCCCO)C4)ccc3OCC)nc12 [Compound 8] | 0.01 to 0.1 µM
CCCc1nn(C)c2c(=O)[nH]c(-c3cc(S(=O)(=O)N4CC(OCCCCO[N+](=O)[O-])C4)ccc3OCC)nc12 [Compound 36] | 0.01 to 0.1 µM
